Cited source for all entries: the supplement of paper PMC6555819

Listing: PBM binding z-score of selected sequences
# Test system: RXRa DBDmut IVT, anti-RXR (DBD mutation: RXRa K156A/R161A, NR concentration 90 nM)
# assay_details: PBM binding z-score (relative to random genomic background probes); higher = stronger binding; sequences stand for … in GC…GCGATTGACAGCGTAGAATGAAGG
endpoint: PBM binding z-score

INSERT INTO assay_data (item_sequence, value_reported) VALUES
  ('CCAGACGGGTGAGAAGGTAACTCAGCCTCGATTA', -0.845),
  ('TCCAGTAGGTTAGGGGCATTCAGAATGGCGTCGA', 1.16),
  ('TTACCAAGATGAAGGTCGTTGATCCCTCTGTAGA', 0.4),
  ('ACAGACAGGTGATGAAGGTAACTCATGCTATCAT', -0.0265),
  ('CGTCCAAGTTCAGAGAGGTCAGTGAATGCCGAGT', 4.24),
  ('TCTTATAGATCAAAGGTTAAGAAAGCCGAAGCCT', 1.21),
  ('GATACAGGGTCAAGGCCACAGTACGCGTATTGAT', 2.15),
  ('CCAGACAGGTGAAAGGTAACTAAGTCTGGTACGC', -0.0522),
  ('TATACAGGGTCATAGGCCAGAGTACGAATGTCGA', 2.94),
  ('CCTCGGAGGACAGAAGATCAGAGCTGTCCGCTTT', -0.174),
  ('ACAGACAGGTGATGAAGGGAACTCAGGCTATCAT', -0.425),
  ('CAGCCTAGGTCAGGGCCAATATAGGAGGAACGTT', 0.0153),
  ('CGAACTAGGTCATTGGCAGGACAGTGAATAGTAA', 2.36),
  ('TCAAATAGGTAAAGGTGAAAGTCGAACGATATGA', 1.55),
  ('TCTATTAGTAGATTAGGGCAACCGAAACAGCGGA', 0.901),
  ('CGTCCAAGGTCAAGGGTCAGTGAAGAGATGACGG', 3.29),
  ('TTATATAGGTAAACAGGTGAAAGTCCGTAAGTTA', 0.156),
  ('CCGACCGGGGCAAAGGTTACCATACTCAGTACGA', 0.0663),
  ('TCTAGCAGGCCAGAGGGTCACTCAAGAGGTACGG', -0.167),
  ('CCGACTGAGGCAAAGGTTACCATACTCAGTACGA', 0.393),
  ('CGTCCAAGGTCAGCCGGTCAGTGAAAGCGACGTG', 2.56),
  ('TTTCCAAGGTGAGCTGAGGTCGTTGATCCAACTC', 0.414),
  ('GCAGACAGGTGAAACGCAGGCAACTCAGGGTGGC', -0.513),
  ('GGGACGAGGGCAAGTTGATAGCAGAGTTTGATGG', 2.62),
  ('TTACCAAGTTGAAGGTCGTTGATCCCTCTGTAGA', 1.07),
  ('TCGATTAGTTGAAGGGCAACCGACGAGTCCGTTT', 1.01),
  ('CCTCCGAGGACAGAAGGTCAGAGCTGTCCGCTTT', 0.589),
  ('CGTCCAAGGTCAAGGTCCGTGAAAGAGACTCGAA', 3.57),
  ('CCTTACGGGTCACTCCAGGTTACAGCATCGGAGT', 1.46),
  ('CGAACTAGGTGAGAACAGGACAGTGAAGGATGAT', 0.0565),
  ('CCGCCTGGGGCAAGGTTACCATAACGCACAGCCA', -0.994),
  ('CCTAGCGGGCCAATCTGGGTCACTCAAGGCTTGA', -0.4),
  ('TAGCCTAGGTCAGATCGGGCCAGAATACGCTATA', -0.569),
  ('TCTGCTAGGTCAGTTTGTCAGCTAACGAGCTGCC', 0.8),
  ('AAAACGAGGGCAATGAGTTGATAGCACGGGTGGC', 2.07),
  ('CCTCGGAGGACTACAGGAGGTCAGAGCTGCCAGA', -0.895),
  ('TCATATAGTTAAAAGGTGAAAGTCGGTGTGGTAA', 1.66),
  ('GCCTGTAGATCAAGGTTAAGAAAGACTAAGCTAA', 0.0892),
  ('CGTCCTAGGTCAAAGGTCAGTGAAGAGATGACGG', 2.25),
  ('ATCTCTAGGTAAAAATAGTTCAGTGAATGCAAAT', 0.16),
  ('TCTGCTAGGTCAGTTGCTCAGCTAACGAGCTGCC', 0.567),
  ('CAAACTAAGTCACGAAAGGTCAAAGTCGAATGAC', 0.992),
  ('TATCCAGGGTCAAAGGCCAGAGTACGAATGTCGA', 2.94),
  ('ATCGAAAGGTCGACGACGTGAGTATACACCGTTT', 1.3),
  ('GCGACTGGGGCATCAGCAGGTTACGATAACTTAA', -0.13),
  ('GCTCGGAGGACAAGGTCAGAGCATTGTCCGTAGA', 0.0327),
  ('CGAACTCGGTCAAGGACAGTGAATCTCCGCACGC', 0.656),
  ('CCGACTGGAGCAGAAAGGTTACCATACCATCCGG', -0.179),
  ('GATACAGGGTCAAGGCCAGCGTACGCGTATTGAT', 2.14),
  ('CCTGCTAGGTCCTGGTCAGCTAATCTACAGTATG', -0.107),
  ('CAAACTAGGCCACGAAAGGTCAAAGTCGAATGAC', 1.47);

* * *

# System: VDR:RXRa (NR concentration 270 nM, RXRa partner concentration 90 nM)
# assay_details: PBM binding z-score (relative to random genomic background probes); higher = stronger binding; sequences stand for … in GC…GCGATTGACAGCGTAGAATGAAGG
# PBM binding z-score >= 1 gives fulfilled, anything below gives not fulfilled

INSERT INTO assay_data (item_sequence, measured_on, label) VALUES
  ('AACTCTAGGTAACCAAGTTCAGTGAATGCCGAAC', 'VDR:RXRa (NR concentration 270 nM, RXRa partner concentration 90 nM)', 'fulfilled'),
  ('CCTCGGAGGACAACAGTAGGTCAGAGCTGCCAGA', 'VDR:RXRa (NR concentration 270 nM, RXRa partner concentration 90 nM)', 'not fulfilled'),
  ('TCATATAGGTAAAGGGTGAAAGTCGGTGTGGTAA', 'VDR:RXRa (NR concentration 270 nM, RXRa partner concentration 90 nM)', 'fulfilled'),
  ('TGAATGAGGTTATAAGATCAGGGAACGTTGCAAA', 'VDR:RXRa (NR concentration 270 nM, RXRa partner concentration 90 nM)', 'not fulfilled'),
  ('ACTAGGAGGCCAAGGGTCACTCAAGATTAGTCCG', 'VDR:RXRa (NR concentration 270 nM, RXRa partner concentration 90 nM)', 'fulfilled'),
  ('GCTGATAGGTCAGGTTGGTCAGCTAACGGGTACG', 'VDR:RXRa (NR concentration 270 nM, RXRa partner concentration 90 nM)', 'fulfilled'),
  ('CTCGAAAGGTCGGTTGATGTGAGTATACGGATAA', 'VDR:RXRa (NR concentration 270 nM, RXRa partner concentration 90 nM)', 'fulfilled'),
  ('CCTACTGGGCCATCGGGTCATTGATATCAACGTT', 'VDR:RXRa (NR concentration 270 nM, RXRa partner concentration 90 nM)', 'fulfilled'),
  ('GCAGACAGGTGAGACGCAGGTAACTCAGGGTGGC', 'VDR:RXRa (NR concentration 270 nM, RXRa partner concentration 90 nM)', 'not fulfilled'),
  ('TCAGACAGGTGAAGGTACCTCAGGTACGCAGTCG', 'VDR:RXRa (NR concentration 270 nM, RXRa partner concentration 90 nM)', 'not fulfilled'),
  ('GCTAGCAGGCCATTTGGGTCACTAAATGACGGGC', 'VDR:RXRa (NR concentration 270 nM, RXRa partner concentration 90 nM)', 'not fulfilled'),
  ('ACAGACAGGTGAGTGAAGGTAACTCGGCTGGACG', 'VDR:RXRa (NR concentration 270 nM, RXRa partner concentration 90 nM)', 'not fulfilled');

* * *

# Tested on: PPARg:RXRa 270nM:90nM, anti-RXR (NR concentration 270 nM, RXRa partner concentration 90 nM)
# assay_details: PBM binding z-score (relative to random genomic background probes); higher = stronger binding; sequences stand for … in GC…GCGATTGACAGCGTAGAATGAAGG
# PBM binding z-score >= 4 gives 1, anything below gives 0

INSERT INTO assay_data (item_sequence, label) VALUES
  ('CCTATTAGTTGACCATAGGGGCAACCGAAGCTCG', 0),
  ('TCTAGTAGATCAACAGGAGGTTAAGAAAGATCGA', 0),
  ('TATACAGGGTCAAAGTCCAGAGTACGAATGTCGA', 1),
  ('ATATGTAGGTTACATCCCGGTCATTCAGGCTATG', 1),
  ('ATTTGTAGGTTAGCTGGGGTCATTCAGACTAGGC', 1),
  ('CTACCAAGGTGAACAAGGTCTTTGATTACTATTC', 0),
  ('CCAGACAGGTGAAAGGTACCTCAGTCTGGTACGC', 1),
  ('ATCTCTAGGTAAGAATCAGTTCAGTGAAGAACGC', 0),
  ('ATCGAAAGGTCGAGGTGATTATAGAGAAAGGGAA', 0),
  ('AATACAGGGTCATCGTCGGCCAGAGTACGCACAG', 1),
  ('TCTAGTTGGTCAAAAGTCACACACTCGAAATGCG', 1);
